Entries and their measured IC50 follow.
Target of assay: Proteasome subunit beta type-8 (Homo sapiens, UniProt P28062)
Sequence (P28062 whole entry): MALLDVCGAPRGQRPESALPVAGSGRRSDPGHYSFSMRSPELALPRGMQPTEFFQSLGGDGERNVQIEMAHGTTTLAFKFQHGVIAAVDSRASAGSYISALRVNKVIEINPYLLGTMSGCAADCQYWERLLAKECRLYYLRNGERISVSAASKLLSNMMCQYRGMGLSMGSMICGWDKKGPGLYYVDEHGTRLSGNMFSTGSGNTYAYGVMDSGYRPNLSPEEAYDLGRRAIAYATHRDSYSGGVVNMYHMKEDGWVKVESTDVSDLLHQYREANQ
Protocol: Inhibition of human chymotrypsin-like beta 5i subunit of iCP using suc-LLVY-AMC as flurogenic substrate for 90 mins by fluorescence-based assay
I only need the number, in µM, no unit after it.

# annotated cases, reported IC50 shown
{"Mol smiles": "O=C(Nc1ccc2[nH]c(=S)sc2c1)[C@H]1CCCN1", "Unit string": "µM", "Recorded result": 95}
{"Mol smiles": "S=c1[nH]c2cccc(Cl)c2[nH]1", "Unit string": "µM", "Recorded result": 60}
{"Mol smiles": "N#Cc1nc2cccc(Cl)c2s1", "Unit string": "µM", "Recorded result": 18}
{"Mol smiles": "O=C(Nc1ccc2nc(S)sc2c1)c1ccccc1", "Unit string": "µM", "Recorded result": 7.1}
{"Mol smiles": "COC(=O)c1ccc2[nH]c(=S)oc2c1", "Unit string": "µM", "Recorded result": 3}
{"Mol smiles": "N#Cc1nc2cccc(Cl)c2[nH]1", "Unit string": "µM", "Recorded result": 75}
{"Mol smiles": "Cn1c(=S)[nH]c2ccc(NC(=O)[C@H]3CCCN3)cc21", "Unit string": "µM", "Recorded result": 109}
{"Mol smiles": "N#Cc1nc2cccc(Cl)c2o1", "Unit string": "µM", "Recorded result": 10}

Reported IC50 of "O=C(Nc1cccc2[nH]c(=S)oc12)c1ccccc1" : 129

Reported IC50 of "S=c1[nH]c2ccc(Cl)cc2o1" : 65

Reported IC50 of "O=[N+]([O-])c1ccc2oc(=S)[nH]c2c1" : 9

Reported IC50 of "COc1ccc2[nH]c(=S)sc2c1" : 13

Reported IC50 of "Cn1c(S)nc2ccccc21" : 94

Reported IC50 of "CCOc1ccc2nc(S)sc2c1" : 9

---

Target of assay: Proteasome subunit beta type-8 (Homo sapiens) (UniProt P28062)
Sequence (P28062 whole entry): as above
Protocol: Inhibition of human chymotrypsin-like beta 5i subunit of iCP assessed as residual activity using suc-LLVY-AMC as flurogenic substrate at 100 uM for 90 mins by fluorescence-based assay
Lab note: cut-off is 70%. Strictly less in Activity is Criterion met. Exactly 70% or more is Criterion not met.

Some solved cases for reference:
{"Mol smiles": "O=C(CCl)Nc1nc2ccccc2s1", "Classification": "Criterion not met"}
{"Mol smiles": "N#Cc1nc2ccccc2[nH]1", "Classification": "Criterion not met"}
{"Mol smiles": "C=CS(=O)(=O)c1nc2ccccc2s1", "Classification": "Criterion met"}
{"Mol smiles": "Cn1c(C#N)nc2ccc(Cl)cc21", "Classification": "Criterion met"}
{"Mol smiles": "O=C(Nc1ccc2[nH]c(=S)oc2c1)[C@H]1CCCN1", "Classification": "Criterion met"}

Ask | Dear colleague, could you confirm whether Activity of "S=c1[nH]c2cccc(-c3ccccc3)c2s1" falls below 70%? Thanks.
Reply | Criterion met

Ask | Dear colleague, could you confirm whether Activity of "Cc1ccc2oc(=S)[nH]c2c1" falls below 70%? Thanks.
Reply | Criterion not met

---

Target of assay: Proteasome subunit beta type-8 (Homo sapiens)
Protocol: Inhibition of human chymotrypsin-like beta 5i subunit of iCP using suc-LLVY-AMC as flurogenic substrate for 90 mins by fluorescence-based assay
Lab note: cut-off is 40 µM. Strictly less in IC50 is 1.0. Exactly 40 µM or more is 0.0.

Ask | Dear colleague, could you confirm whether IC50 of "N#Cc1nc2cc(Cl)ccc2o1" falls below 40 µM? Thanks.
Reply | 0.0

Source: ChEMBL document CHEMBL4819103
